# SYSTEM TESTED: CDK2/Cyclin A2 (Homo sapiens)
# PROCEDURE TEXT: Inhibition of full length N-terminal GST tagged human CDK2(1 to 298 residues)/CyclinA2 (1 to 432 residues) expressed in baculovirus expression system using FL peptide as substrate preincubated for 30 mins followed by substrate addition further incubated for 120 mins by EZ reader method
pIC50: −log10 of the molar value.

{"columns": ["SUBSTANCE SMILES", "RELATION", "pIC50"],
 "data": [
  ["C[C@](O)(c1ccc2cnc(Nc3ccc(-n4ccc(CO)n4)cc3F)cc2n1)C1CCNCC1", "=", 6.60],
  ["CN1CCC([C@@](C)(O)c2ccc3cnc(Nc4cc(C(F)(F)F)ccc4F)cc3n2)CC1", "=", 6.98],
  ["CN1CCC([C@@](C)(O)c2ccc3cnc(Nc4cc(N5CCCC5)ncc4F)cc3n2)CC1", "=", 7.37],
  ["CN1CCC([C@@H](O)c2ccc3cnc(Nc4ccc(-n5ccc(CO)n5)cc4F)cc3n2)CC1", "=", 6.22],
  ["CN1CCC([C@@](C)(O)c2ccc3cnc(Nc4cc(C(F)(F)F)ncc4F)cc3n2)CC1", "=", 6.68],
  ["CCc1ccc(F)c(Nc2cc3nc([C@](C)(O)C4CCN(C)CC4)ccc3cn2)c1", "=", 7.26],
  ["CN1CCC([C@@](C)(O)c2ccc3cnc(Nc4cc(N5CCOCC5)c(C#N)cc4F)cc3n2)CC1", "=", 6.41],
  ["O=C(O)CN(c1ccc2cnc(Nc3ccc(-n4ccc(CO)n4)cc3F)cc2n1)C1CCNCC1", "=", 5.86],
  ["C#Cc1cc(F)c(Nc2cc3nc([C@](C)(O)C4CCN(C)CC4)ccc3cn2)cc1N1CCOCC1", "<", 4.52],
  ["OCc1ccn(-c2ccc(Nc3cc4nc(OC5CCNCC5)ccc4cn3)c(F)c2)n1", "=", 6.33],
  ["CN1CCC([C@@](C)(O)c2ccc3cnc(Nc4cccc(N5CCOCC5)c4)cc3n2)CC1", "=", 6.98]
]}
